target: hSTING-WT (Homo sapiens (Human), UniProt Q86WV6, H232R); assay: Radiometric filtration binding competition assay, hSTING-WT
Sequence (Q86WV6 140-379 H232R): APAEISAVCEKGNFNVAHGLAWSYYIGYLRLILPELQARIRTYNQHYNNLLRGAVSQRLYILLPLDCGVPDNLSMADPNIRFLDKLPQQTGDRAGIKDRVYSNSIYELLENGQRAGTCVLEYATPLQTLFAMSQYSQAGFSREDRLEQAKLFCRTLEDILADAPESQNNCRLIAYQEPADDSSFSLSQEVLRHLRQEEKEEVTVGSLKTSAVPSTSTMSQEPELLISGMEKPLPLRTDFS
measure_name: IC50

                                   compound                           subject_of_test  measure_name  reported_measurement
0  CSc1c(Cl)ccc2c(=O)c3ccc(Nc4ccc(F)cc4)cc3n(CC(=O)O)c12  hSTING-WT (Homo sapiens (Human), UniProt Q86WV6, H232R)          IC50               < 20 µM
1  Cc1ccc2c(=O)c3ccc(Cl)c(OCc4ccccc4)c3n(CC(=O)O)c2c1  hSTING-WT (Homo sapiens (Human), UniProt Q86WV6, H232R)          IC50          20 to 100 µM
2  CCOC(=O)Cn1c2cc(C)ccc2c(=O)c2ccc(Cl)c(OCC)c21  hSTING-WT (Homo sapiens (Human), UniProt Q86WV6, H232R)          IC50              > 300 µM

Data point: O=C(O)Cn1c2cc([C@H]3CC[C@H](O)CC3)ccc2c(=O)c2ccc(Cl)c(Cl)c21 ; IC50 = < 20 µM

Data point: CC(C)Sc1ccc2c(=O)c3ccc(Cl)c(Cl)c3n(CC(=O)O)c2c1 ; IC50 = 100 to 300 µM

Data point: Cc1cccc2c(=O)c3cccc(C)c3n(CC(=O)O)c12 ; IC50 = 100 to 300 µM

Data point: O=C(O)Cn1c2cc(C3=CCC(O)CC3)ccc2c(=O)c2ccc(Cl)c(Cl)c21 (centres unmarked) ; IC50 = 100 to 300 µM

Data point: CC1(C)CCCC(c2ccc3c(=O)c4ccc(Cl)c(Cl)c4n(CC(=O)O)c3c2)C1 (centres unmarked) ; IC50 = < 20 µM

====

molecular target: hSTING-R232 (Homo sapiens (Human), UniProt Q86WV6, H232R); assay: STING differential scanning fluorimetry (DSF) assay, WT human STING; conditions: WT (R232) human STING aa140-379, net shift in melting temperature
Sequence (Q86WV6 140-379 H232R): as above
measure_name: WT_DSF_hSWAT Tm Shift (° C.)

Example results:
>>> df
                            chemical_string                  measure_name  reported_measurement
0  COc1c(Cl)ccc2c(=O)c3ccc(Nc4ccccc4)cc3n(CC(=O)O)c12  WT_DSF_hSWAT Tm Shift (° C.)       D (“D” > 7° C.)
1  C[C@@H]1CCCN1c1ccc2c(=O)c3ccc(Cl)c(Br)c3n(CC(=O)O)c2c1  WT_DSF_hSWAT Tm Shift (° C.)     C (“C” = 2-7° C,)
2  CC(C)c1ccc2c3ccc(Cl)c(Cl)c3n(CC(=O)O)c2c1  WT_DSF_hSWAT Tm Shift (° C.)       A (“A” < 0° C.)
3  O=C(O)CCCn1c2ccccc2c(=O)c2ccc(Cl)c(Cl)c21  WT_DSF_hSWAT Tm Shift (° C.)       A (“A” < 0° C.)
4  O=C(O)Cn1c2cc(Nc3cnc(Cl)cn3)ccc2c(=O)c2ccc(Cl)c(Cl)c21  WT_DSF_hSWAT Tm Shift (° C.)       D (“D” > 7° C.)

Record for CN(Cc1ccccc1)c1c(Cl)ccc2c(=O)c3ccccc3n(CC(=O)O)c12 under target or system hSTING-R232 (Homo sapiens (Human), UniProt Q86WV6, H232R): WT_DSF_hSWAT Tm Shift (° C.) reported as A (“A” < 0° C.)

Record for COc1c(Cl)ccc2c(=O)c3ccc(SC)cc3n(CC(=O)O)c12 under target or system hSTING-R232 (Homo sapiens (Human), UniProt Q86WV6, H232R): WT_DSF_hSWAT Tm Shift (° C.) reported as D (“D” > 7° C.)

Record for C[C@H](C(=O)O)n1c2ccccc2c(=O)c2ccc(Cl)c(Cl)c21 under target or system hSTING-R232 (Homo sapiens (Human), UniProt Q86WV6, H232R): WT_DSF_hSWAT Tm Shift (° C.) reported as A (“A” < 0° C.)

Record for O=C(O)Cn1c2cc(-c3cccc(Cl)n3)ccc2c(=O)c2ccc(Cl)c(Cl)c21 under target or system hSTING-R232 (Homo sapiens (Human), UniProt Q86WV6, H232R): WT_DSF_hSWAT Tm Shift (° C.) reported as A (“A” < 0° C.)

Record for O=C(O)Cn1c2cc(-c3cccnc3)ccc2c(=O)c2ccc(Cl)c(Cl)c21 under target or system hSTING-R232 (Homo sapiens (Human), UniProt Q86WV6, H232R): WT_DSF_hSWAT Tm Shift (° C.) reported as C (“C” = 2-7° C,)

Record for CC(=O)COc1c(Cl)ccc2c(=O)c3ccccc3n(CC(=O)O)c12 under target or system hSTING-R232 (Homo sapiens (Human), UniProt Q86WV6, H232R): WT_DSF_hSWAT Tm Shift (° C.) reported as B (“B” = 0-2° C.)

Record for O=C(O)Cn1c2ccccc2c(=O)c2ccc(F)c(Br)c21 under target or system hSTING-R232 (Homo sapiens (Human), UniProt Q86WV6, H232R): WT_DSF_hSWAT Tm Shift (° C.) reported as B (“B” = 0-2° C.)

====

biological target: hSTING-R232 (Homo sapiens (Human), UniProt Q86WV6, H232R); test: STING differential scanning fluorimetry (DSF) assay, WT human STING; conditions: WT (R232) human STING aa140-379, net shift in melting temperature
measure_name: WT_DSF_hSWAT Tm Shift (° C.)

>>> print(df.to_string())
                                   compound  reported_measurement
0  Cc1ccc2c(=O)c3ccc(Cl)c(-c4ccccc4)c3n(CC(=O)O)c2c1 [Compound 326]       D (“D” > 7° C.)
1  O=C(O)Cn1c2cc(-c3cccc(F)c3)ccc2c(=O)c2ccc(Cl)c(Cl)c21 [Compound 152]     C (“C” = 2-7° C,)
2  COc1c(Cl)ccc2c(=O)c3ccc(-c4cccc(O)c4)cc3n(CC(=O)O)c12 [Compound 270]       D (“D” > 7° C.)
3  CC(C)c1ccc2c(=O)c3ccc(Cl)c(-c4ccccc4)c3n(CC(=O)O)c2c1 [Compound 289]       D (“D” > 7° C.)
4  CSc1c(Cl)ccc2c(=O)c3ccc(Nc4cnccn4)cc3n(CC(=O)O)c12 [Compound 291]       D (“D” > 7° C.)

Data point: COc1c(Cl)ccc2c(=O)c3ccc(C4CCCNC4)cc3n(CC(=O)O)c12 (centres unmarked) [Compound 227] ; WT_DSF_hSWAT Tm Shift (° C.) = C (“C” = 2-7° C,)

Data point: CCOc1c(Cl)ccc2c(=O)c3ccc(C)cc3n(CC(=O)OC)c12 [Compound 322] ; WT_DSF_hSWAT Tm Shift (° C.) = B (“B” = 0-2° C.)

Data point: O=C(O)Cn1c2cc(NC3CCOCC3)ccc2c(=O)c2ccc(Cl)c(Cl)c21 [Compound 142] ; WT_DSF_hSWAT Tm Shift (° C.) = C (“C” = 2-7° C,)

Data point: O=C(O)Cn1c2cc(Nc3ncccn3)ccc2c(=O)c2ccc(Cl)c(Cl)c21 [Compound 216] ; WT_DSF_hSWAT Tm Shift (° C.) = C (“C” = 2-7° C,)

Data point: CC(C)Nc1ccc2c(=O)c3ccc(Cl)c(-c4ccccc4)c3n(CC(=O)O)c2c1 [Compound 336] ; WT_DSF_hSWAT Tm Shift (° C.) = D (“D” > 7° C.)

====

biological target: mSTING (Mus musculus, UniProt Q3TBT3)
pIC50: −log10 of the molar value.
The reader will find reported pIC50 values listed item by item below.

                                   compound  reported_measurement
0  COc1c(Cl)cc(O)c2c(=O)c3ccccc3n(CC(=O)O)c12 [Compound 314]          3.52 to 4.00
1  COc1c(Cl)ccc2c(=O)c3ccc(Nc4ccc(F)cc4)cc3n(CC(=O)O)c12 [Compound 250]                > 4.70
2  CCOc1c(Cl)ccc2c(=O)c3ccccc3n(CC(=O)O)c12 [Compound 244]          4.00 to 4.70

Data point: COc1c(Cl)ccc2c(=O)c3ccc(-c4ccc(N)cc4)cc3n(CC(=O)O)c12 [Compound 274] ; pIC50 = > 4.70

Data point: COc1c(Cl)ccc2c(=O)c3ccc(C4=CCCCC4)cc3n(CC(=O)O)c12 [Compound 219] ; pIC50 = > 4.70

====

The reader will find reported IC50 values listed item by item below.
target: hSTING-HAQ (Homo sapiens (Human), UniProt Q86WV6, G230A/H232R/R293Q); experiment: Radiometric filtration binding competition assay, hSTING-HAQ
Sequence (Q86WV6 140-379 G230A/H232R/R293Q): as the sequence (Q86WV6 140-379 H232R) above, with G91A, R154Q counted along it

Example results:
                                   compound  reported_measurement
0  COc1c(Cl)ccc2c(=O)c3ccc(C4=CCCCC4)cc3n(CC(=O)O)c12 [Compound 219]          20 to 100 µM
1  O=C(O)Cn1c2cc(C3CCCCC3)ccc2c(=O)c2ccc(Cl)c(Cl)c21 [Compound 115]         100 to 300 µM
2  Cc1cccc(-c2ccc3c(=O)c4ccc(Cl)c(Cl)c4n(CC(=O)O)c3c2)c1 [Compound 151]          20 to 100 µM

Data point: O=C(O)Cn1c2cc(NC3CCCCC3)ccc2c(=O)c2ccc(Cl)c(Br)c21 [Compound 110] ; IC50 = 20 to 100 µM

Data point: O=C(O)Cn1c2cc(Nc3ccccc3)ccc2c(=O)c2ccc(Cl)c(Cl)c21 [Compound 181] ; IC50 = 20 to 100 µM
